Tested on: OVCAR-3 ovarian
Experiment: NCI tumour cell line growth inhibition, 48 h
Quantity name: GI50

{"Molecule": "Clc1cccc(N/N=C/c2c[nH]c3ccc(Br)cc23)n1", "Quantity name": "GI50", "Result": "2.11 µM"}
{"Molecule": "S=C(NCCc1ccccc1)Nc1ccc(OCc2nc3ccc(Cl)cc3[nH]2)cc1", "Quantity name": "GI50", "Result": "3.51 µM"}
{"Molecule": "COc1ccc2c(c1)c(-c1cc(N)n3nc(-c4c[nH]c5ccccc45)cc3n1)cn2C", "Quantity name": "GI50", "Result": "2.02 µM"}
{"Molecule": "CCCCSc1nc(Nc2ccc(/C(C)=N/NC(N)=S)cc2)c(C#N)c(-c2ccc(OC)cc2)n1", "Quantity name": "GI50", "Result": "21.5 µM"}

Shifting focus to the compound that follows.
Query :: // query GI50 value for entry `CCCCCc1ccc(S(=O)(=O)N(C(C)=O)c2cc(-c3csc(N(C)C(C)=O)n3)ccc2N2CCN(C)CC2)cc1`
Result :: 6.4 µM

====

System: MDA-MB-468 breast
Assay: NCI tumour cell line growth inhibition, 48 h
Quantity name: TGI (µM)
Please state the figure in µM; there is no need to write the unit.

Some solved entries appear below for comparison.
{"Molecule": "O=C1c2cccnc2C(=O)c2c1c(C(=O)OCCCN1CCCCC1)c1ccccn21", "Numeric readout": 14.5}
{"Molecule": "CCCCSc1nc(Nc2ccc(/C(C)=N/NC(N)=S)cc2)c(C#N)c(-c2ccc(OC)cc2)n1", "Numeric readout": 49.1}
{"Molecule": "CC1=C2C(=C[C@@](C)(COC(=O)c3ccc(S(=O)(=O)F)cc3)[C@@H]2O)C(=O)[C@](C)(O)C12CC2", "Numeric readout": 2.17}
{"Molecule": "Cc1nc2sc(C(=O)c3ccc(Cl)cc3)c(N)c2c(-c2ccccc2Cl)c1C(=O)Nc1ccccc1", "Numeric readout": 37}

Query :: Hi! What's the reported TGI for `CC(=O)/C=C/c1ccc(OCc2ccc(Cl)cc2)cc1` on MDA-MB-468 breast?
Result :: 872

Query :: Same lookup for `CC(C)(C)OC(=O)NCc1cccc(N=C=S)c1` , please.
Result :: 48.1

Query :: Same lookup for `CN1CCN(c2nc(-c3csc(-c4cccs4)n3)cc3ccccc23)CC1` , please.
Result :: 3.39

====

In this section, each of the compounds is paired with its reported TGI.
System: NCI-H522 lung
Experiment: NCI tumour cell line growth inhibition, 48 h
Please state the figure in µM; there is no need to write the unit.

Some solved entries appear below for comparison.
{"Molecule": "CCCCSc1nc(Nc2ccc(/C(C)=N/NC(N)=S)cc2)c(C#N)c(-c2ccc(OC)cc2)n1", "Numeric readout": 28.6}
{"Molecule": "COc1ccc2c(c1)c(-c1cc(N)n3nc(-c4c[nH]c5ccccc45)cc3n1)cn2C", "Numeric readout": 3.5}

Query :: // query TGI value for entry `CCCCCc1ccc(S(=O)(=O)N(C(C)=O)c2cc(-c3csc(N(C)C(C)=O)n3)ccc2N2CCN(C)CC2)cc1`
Result :: 17.3

Query :: Same lookup for `Clc1cccc(N/N=C/c2c[nH]c3ccc(Br)cc23)n1` , please.
Result :: 11.9

====

System: NCI-H226 lung
Assay: NCI tumour cell line growth inhibition, 48 h
In this section, each of the molecules is paired with its reported TGI.
The answer consists of two parts: a number and, after it, its unit.

{"Molecule": "S=C(NCCc1ccccc1)Nc1ccc(OCc2nc3ccc(Cl)cc3[nH]2)cc1", "Quantity name": "TGI", "Result": "35.5 µM"}

Query :: // query TGI value for entry `CC(=O)N1CCN(Cc2ccc3c(NNC(=O)c4cnccn4)nc4cc(F)ccc4n23)CC1`
Result :: 11.2 µM

Query :: Same lookup for `CCCCSc1nc(Nc2ccc(/C(C)=N/NC(N)=S)cc2)c(C#N)c(-c2ccc(OC)cc2)n1` , please.
Result :: 27.5 µM

Query :: Same lookup for `CCCCCc1ccc(S(=O)(=O)N(C(C)=O)c2cc(-c3csc(N(C)C(C)=O)n3)ccc2N2CCN(C)CC2)cc1` , please.
Result :: 24.1 µM
